tested on: HCT-116; assay: Antiproliferative activity against human HCT116 cells after 72 hrs by MTT assay; format: functional, cell-based; conditions: HCT-116, 72 h
pIC50: −log10 of the molar value.
observation_type: pIC50

Some molecules with recorded pIC50:
>  <molecule>
CCCCNC(=O)Nc1ccc(-c2nc(N3CCOCC3)c3cnn(CCCCCCC(=O)NO)c3n2)cc1

>  <observed_value>
7.47

$$$$
>  <molecule>
O=C(CCCCCCn1ncc2c(N3CCOCC3)nc(-c3ccc(NC(=O)NCCO)cc3)nc21)NO

>  <observed_value>
7.24

$$$$
>  <molecule>
O=C(CCCCCCn1ncc2c(N3CCOCC3)nc(-c3ccc(NC(=O)N4CCOCC4)cc3)nc21)NO

>  <observed_value>
7.00

$$$$
>  <molecule>
Nc1ccc(-c2nc(N3CCOCC3)c3cnn(CCCCCCC(=O)NO)c3n2)cc1

>  <observed_value>
8.15

$$$$
>  <molecule>
C[C@@H]1CN(C(=O)Nc2ccc(-c3nc(N4CCOCC4)c4cnn(CCCCCCC(=O)NO)c4n3)cc2)CCO1

>  <observed_value>
7.76

$$$$
>  <molecule>
O=C(CCCCCCn1ncc2c(N3CCOCC3)nc(-c3ccc(NC(=O)N4CCNCC4)cc3)nc21)NO

>  <observed_value>
6.96

$$$$

A: Nc1ncc(-c2nc(N3CCOCC3)c3cnn(CCCCCCC(=O)NO)c3n2)cn1
B: CC(O)CNC(=O)Nc1ccc(-c2nc(N3CCOCC3)c3cnn(CCCCCCC(=O)NO)c3n2)cc1 (centres undefined)
C: O=C(CCCCCCn1ncc2c(N3CCOCC3)nc(-c3ccsc3)nc21)NO
hey, can you rank those molecules up there by pIC50? biggest number first please To answer, arrange all of the labels according to the requested order.
C, A, B

Origin of measurements: ChEMBL document CHEMBL4411315
